Biological target: T1, human CD19 (human, UniProt P15391 20-556)
T1 sequence: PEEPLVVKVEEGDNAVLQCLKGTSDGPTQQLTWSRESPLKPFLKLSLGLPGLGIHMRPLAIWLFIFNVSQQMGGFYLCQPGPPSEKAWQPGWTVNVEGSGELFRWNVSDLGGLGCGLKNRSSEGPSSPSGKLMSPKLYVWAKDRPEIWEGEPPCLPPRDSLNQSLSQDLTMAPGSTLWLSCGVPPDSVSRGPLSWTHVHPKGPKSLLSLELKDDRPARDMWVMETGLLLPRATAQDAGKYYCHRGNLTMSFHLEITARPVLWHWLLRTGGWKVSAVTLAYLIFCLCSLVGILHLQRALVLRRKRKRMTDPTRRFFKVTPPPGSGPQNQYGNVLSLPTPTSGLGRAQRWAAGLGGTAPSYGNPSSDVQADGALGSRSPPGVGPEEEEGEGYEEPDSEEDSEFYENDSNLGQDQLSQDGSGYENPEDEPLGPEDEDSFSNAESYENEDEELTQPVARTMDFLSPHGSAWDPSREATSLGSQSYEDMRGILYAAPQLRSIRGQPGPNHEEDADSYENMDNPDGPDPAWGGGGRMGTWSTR
Experiment: flow cytometry on CD19-expressing cells (n = 1)
Recorded EC50 for the following binders
Answer with a number only, understood to be in nM.

Would you please look over these solved cases?
# Binder, Units symbol, EC50
records = [
    ("Clone 5 scFv (scFv, Human scFv, VH-(G4S)3-VL) scFv: EVQLVESGGGLVQPGRSLRLSCAASGFTFDDYAMHWVRQAPGKGLEWVSGISWNSGRIGYADSVKGRFTISRDNAKNSLFLQMNSLRAEDTAVYYCARDQGYHYYDSAEHAFDIWGQGTMVTVSSGGGGSGGGGSGGGGSSYELTQDPAVSVALGQTVRITCQGDSLRSYYASWYQQKPGQAPVLVIYDKNNRPSGIPDRFSGSSSGNTASLTITGAQAEDEADYYCNSRDSSGNNWVFGGGTKLTVL", "nM", 15.8),
    ("Clone 505 scFv (scFv) scFv: EVQLVESGGGLVQPGRSLRLSCAASGFTFDDYAMHWVRQAPGKGLEWVSGISWNSGRIGYADSVKGRFTISRDNAKNSLFLQMNSLRAEDTAVYYCARDQGYHYYDSAEHAFDIWGQGTMVTVSSQSVLTQPRSLSGSPGQSVTIACTGASTDVGGYNYVSWYQQHPGKAPKLMIYDVNKRPSGVPDRFSGSKSGNTAFLTISGLQAEDEADYYCCSYAGSYTFEVFGGGTKLTVL", "nM", 139),
    ("Clone 835 scFv (scFv, Human scFv) scFv: EVQLVESGGGLVQPGRSLRLSCAASGFTFDDYAMHWVRLAPGKGLEWVSGISWNSGRIGYADSVKGRFTISRDNAKNSLFLQMNSLRAKDTAVYYCARDQGYHYYDSAEHAFDIWGQGTMVTVSSGGGGSGGGGSGGGGSQSVLTQPRSVSGSPGQSVTISCTGPISGVGDYTSVSWYQHYPGKTPKLIIYDVTQRPSGVPNRFSGSKSGNTASLTISGLQADDEADYYCCSYEAPTHTYVFGTGTKLTVL", "nM", 71.8),
    ("Clone 506 scFv (scFv, Human scFv) scFv: EVQLVESGGGLVQPGRSLRLSCAASGFTFDDYAMHWVRQAPGKGLEWVSGISWNSGRIGYADSVKGRFTISRDNAKNSLFLQMNSLRAEDTAVYYCARDQGYHYYDSAEHAFDIWGQGTMVTVSSGGGGSGGGGSGGGGSQLVLTQPPSVSGSPGQSVTFSCTGASSDVGGYDHVSWYQHHPGKGPKLLIYDVSKRPSGVPDRFSGSKSGNTASLTISGLQAEDEADYYCCSFAGYYTYWLFGGGTKVTVL", "nM", 179),
    ("Clone 184 scFv (scFv, V domains shown) VH: QVQLVESGGGLVQPGRSLRLSCAASGFTFDDYAMHWVRQAPGKGLEWVSGISWNSGRIGYADSVKGRFTISRDNAKNSLFLQMNSLRAEDTAVYYCARDQGYHYYDSAEHAFDIWGQGTMVTVSS", "nM", 114),
    ("Clone 1 scFv (scFv, Human scFv) scFv: EVQLVESGGGLVQPGRSLRLSCAASGFTFDDYAMHWVRQAPGKGLEWVSGISWNSGRIGYADSVKGRFTISRDNAKNSLFLQMNSLRAEDTAVYYCARDQGYHYYDSAEHAFDIWGQGTMVTVSSGGGGSGGGGSGGGGSQSALTQPASVSGSPGQSITISCTGTSSDVGAYNFVSWYQQLPGTAPKFLIYDNNKRPPGIPDRFSGSKSGTSATLGITGLQTGDEADYYCATWDSGLSAVVFGGGTKLTVL", "nM", 214),
]

Now take the following binder into account.
Reported EC50 ( Clone 79 scFv (scFv, Human scFv) scFv: EVQLVESGGGLVQPGRSLRLSCAASGFTFDDYAMHWVRQAPGKGLEWVSGISWNSGRIGYADSVKGRFTISRDNAKNSLFLQMNSLRAEDTAVYYCARDQGYHYYDSAEHAFDIWGQGTVVTVSSGGGGSGGGGSGGGGSQSVLTQPPSVSAAPGQKVTISCSGSSSNIGNNYVSWYQQLPGTAPKLLIYDNNKRPSGIPDRFSGSKSGTSATLGITGLQTGDEGDYYCGTWDISLRFGVFGGGTKVTVL ) = 65.7
